Target: Peroxisome proliferator-activated receptor delta (Homo sapiens, UniProt Q03181)
Sequence (Q03181 whole entry): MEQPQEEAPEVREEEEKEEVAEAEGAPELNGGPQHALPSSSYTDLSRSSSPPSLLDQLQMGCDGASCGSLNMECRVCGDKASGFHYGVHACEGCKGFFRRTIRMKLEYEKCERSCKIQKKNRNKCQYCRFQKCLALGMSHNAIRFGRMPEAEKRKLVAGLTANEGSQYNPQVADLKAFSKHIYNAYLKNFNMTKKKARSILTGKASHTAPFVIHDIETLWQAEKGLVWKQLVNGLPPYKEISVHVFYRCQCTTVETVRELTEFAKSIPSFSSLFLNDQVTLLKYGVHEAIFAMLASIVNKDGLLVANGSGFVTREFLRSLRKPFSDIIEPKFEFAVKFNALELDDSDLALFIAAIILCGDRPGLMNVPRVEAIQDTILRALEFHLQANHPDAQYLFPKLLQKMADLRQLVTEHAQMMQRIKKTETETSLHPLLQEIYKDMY
Heads up, the class ranges for EC50 are group 1: < 30 nM; group 2: ≥ 30 nM and < 200 nM; group 3: ≥ 200 nM

>>> assigned_class("COc1ccc(-c2nc(COc3ccc(OCC(=O)O)c(C)c3)sc2/C=C/c2ccccc2)cc1")
"group 2"
>>> assigned_class("Cc1cc(OCc2nc(-c3cncnc3)c(-c3ccc(OC(F)(F)F)cc3)o2)ccc1OCC(=O)O")
"group 2"
>>> assigned_class("Cc1cc(OCc2nc(-c3ccc(Cl)cc3)cs2)ccc1OCC(=O)O")
"group 3"
>>> assigned_class("Cc1cc(OCc2nc(-c3ccc(OC4CCCC4)cc3)c(-c3ccc(OC(F)(F)F)cc3)s2)ccc1OCC(=O)O")
"group 1"
>>> assigned_class("Cc1cc(OCc2nc(-c3ccc(OC(C)C)cc3)c(-c3cccc(OC(F)(F)F)c3)s2)ccc1OCC(=O)O")
"group 1"
>>> assigned_class("COc1ccc(-c2nc(COc3ccc(OCC(=O)O)c(C)c3)sc2-c2ccc(SC(F)(F)F)cc2)cc1")
"group 2"
>>> assigned_class("COc1ccc(-c2sc(COc3ccc(OCC(=O)O)c(C)c3)nc2-c2ccccc2)cc1")
"group 3"
>>> assigned_class("COc1ccc(-c2nc(COc3ccc(OCC(=O)O)c(C)c3)sc2-c2cnc3ccccc3c2)cc1")
"group 2"
>>> assigned_class("Cc1cc(OCc2nc(-c3ccccc3)c(-c3ccc(Cl)cc3)s2)ccc1OCC(=O)O")
"group 2"
>>> assigned_class("COc1ccc(-c2nc(COc3ccc4oc(C(=O)O)cc4c3)sc2-c2ccc(C(F)(F)F)cc2)cc1")
"group 3"
>>> assigned_class("Cc1cc(OCc2nc(-c3ccccc3)c(-c3ccccc3)s2)ccc1OCC(=O)O")
"group 3"
>>> assigned_class("CCCc1ccc(-c2sc(COc3ccc(OCC(=O)O)c(C)c3)nc2-c2ccc(OC)cc2)cc1")
"group 3"
>>> assigned_class("COc1ccc(-c2nc(SCCCCOc3ccc(OCC(=O)O)c(C)c3)sc2-c2ccc(OC)cc2)cc1")
"group 3"
>>> assigned_class("COc1ccc(-c2nc(COc3ccc(OCC(=O)O)c(C)c3)sc2-c2ccc(-c3ccccc3)cc2)cc1")
"group 1"
>>> assigned_class("COc1ccc(-c2nc(COc3ccc(OCC(=O)O)c(C)c3)sc2-c2ccc(OC)c(Cl)c2)cc1")
"group 2"
>>> assigned_class("CCOc1ccc(-c2nc(COc3ccc(OCC(=O)O)c(C)c3)sc2-c2ccc(OC(F)(F)F)cc2)cc1")
"group 2"
>>> assigned_class("COc1ccc(-c2nc(COc3ccc(OCC(=O)O)c(C)c3)oc2-c2cnc3ccccc3c2)cc1")
"group 2"
>>> assigned_class("COc1ccc(-c2nc(Sc3cccc(C(C)C(=O)O)c3)sc2-c2ccc(OC)cc2)cc1 (centres undefined)")
"group 3"
>>> assigned_class("Cc1cc(OCc2nc(-c3ccc(C(F)(F)F)cc3)c(-c3ccc(C(F)(F)F)cc3)s2)ccc1OCC(=O)O")
"group 3"
>>> assigned_class("COc1ccc(-c2nc(COc3ccc(OCC(=O)O)c(C)c3)sc2-c2cc3ccccc3o2)cc1")
"group 2"
>>> assigned_class("COc1ccc(-c2nc(COc3ccc(CCC(=O)O)c(C)c3)sc2-c2ccc(C(F)(F)F)cc2)cc1")
"group 2"
>>> assigned_class("Cc1cc(OCc2nc(-c3cccnc3)c(-c3ccc(OC(F)(F)F)cc3)s2)ccc1OCC(=O)O")
"group 2"
>>> assigned_class("Cc1cc(OCc2nc(-c3ccc(OC(C)C)cc3)c(-c3ccc(OC(F)(F)F)cc3)o2)ccc1OCC(=O)O")
"group 1"
>>> assigned_class("COc1ccc(-c2nc(COc3ccc(OCC(=O)O)c(C)c3)sc2-c2ccc(OC(F)(F)F)cc2)cc1")
"group 1"
>>> assigned_class("Cc1cc(OCc2nc(-c3cnc(OC(C)C)nc3)c(-c3ccc(OC(F)(F)F)cc3)s2)ccc1OCC(=O)O")
"group 1"
>>> assigned_class("COc1ccc(-c2nc(COc3ccc(OCC(=O)O)cc3C)sc2-c2ccc(C(F)(F)F)cc2)cc1")
"group 3"
>>> assigned_class("COc1ccc(-c2nc(COc3ccccc3OCC(=O)O)sc2-c2ccc(C(F)(F)F)cc2)cc1")
"group 3"
>>> assigned_class("Cc1cc(OCc2nc(-c3cnc(OC(C)C)nc3)c(-c3ccc(OC(F)(F)F)cc3)o2)ccc1OCC(=O)O")
"group 1"
>>> assigned_class("Cc1ccc(-c2csc(COc3ccc(OCC(=O)O)c(C)c3)n2)cc1")
"group 3"
>>> assigned_class("COc1ccc(-c2nc(COc3ccc(OCC(=O)O)c(C)c3)oc2-c2ccc(OC(F)(F)F)cc2)cn1")
"group 1"
>>> assigned_class("Cc1cc(OCc2nc(-c3ccc(OC(C)C)nc3)c(-c3ccc(OC(F)(F)F)cc3)o2)ccc1OCC(=O)O")
"group 3"
>>> assigned_class("Cc1cc(OCc2nc(-c3ccc(OC(C)C)cc3)c(-c3ccc(OC(F)(F)F)cc3)s2)ccc1OCC(=O)O")
"group 1"
>>> assigned_class("COc1ccc(-c2nc(COc3ccc(OCC(=O)O)c4ccccc34)sc2-c2ccc(C(F)(F)F)cc2)cc1")
"group 3"
>>> assigned_class("COc1ccc(-c2nc(CSc3ccc(OCC(=O)O)c(C)c3)sc2-c2ccc(OC)cc2)cc1")
"group 3"
